# PROTOCOL: A CellTox Green Cytotoxicity Assay to monitor cytotoxicity in HepG2 cells - 32 hour (AID 1224883); further: nearly all actives have a fitted effect of over 50% in size; further: potency means the concentration at half of the fitted maximal effect
# TEST_CONTEXT: CellTox Green fluorescence; series mostly up to 76.8 µM
Results filed as inconclusive are left out. Active and inactive are the calls of the source. The call rests on the fitted dose curve; in most records, active means well fitted activation curve with a large enough effect in the repeat runs; inconclusive means weak or mixed curves; inactive means flat fitted curve, though single readings scatter.
REPORTED_ENDPOINT: Potency

compound="C#CC(O)CCC (stereo unspecified)" reported_endpoint=Potency value_measured=inactive
compound=CCOC(OCC)C(=O)c1ccccc1 reported_endpoint=Potency value_measured=inactive
compound=CCN=c1cc2oc3cc(NCC)c(C)cc3c(-c3ccccc3C(=O)OCC)c-2cc1C reported_endpoint=Potency value_measured="21.8 µM (active)"
compound=OCCCS reported_endpoint=Potency value_measured=inactive
compound=Clc1ccccc1CN1CCc2sccc2C1 reported_endpoint=Potency value_measured=inactive
compound=Cc1ccc2ccc3cccc4ccc1c2c34 reported_endpoint=Potency value_measured=inactive
compound=CCOC(=O)C1=C(C)NC(C)=C(C(=O)OCC)C1c1ccccc1/C=C/C(=O)OC(C)(C)C reported_endpoint=Potency value_measured=inactive
compound=COc1nccnc1CC(C)C reported_endpoint=Potency value_measured=inactive
compound=CCN(CC)CCNc1ccc(CO)c2sc3ccccc3c(=O)c12 reported_endpoint=Potency value_measured="13.4 µM (active)"
compound="CCCCCCCCCCOCC(O)CN (stereo unspecified)" reported_endpoint=Potency value_measured="13.4 µM (active)"
compound=CC(C)c1ccc(O)c(C(C)C)c1 reported_endpoint=Potency value_measured="27.5 µM (active)"
compound=COc1ccccc1C=O reported_endpoint=Potency value_measured=inactive
compound=O=C(O)CCn1c2c(c3ccccc31)C[C@H](NS(=O)(=O)c1ccc(F)cc1)CC2 reported_endpoint=Potency value_measured=inactive
compound=C[C@H]1O[C@@H](O[C@H]2[C@@H](O)C[C@H](O[C@H]3[C@@H](O)C[C@H](O[C@H]4CC[C@@]5(C)[C@H](CC[C@@H]6[C@@H]5C[C@@H](O)[C@]5(C)[C@@H](C7=CC(=O)OC7)CC[C@]65O)C4)O[C@@H]3C)O[C@@H]2C)C[C@H](O)[C@@H]1O reported_endpoint=Potency value_measured=inactive
compound=NC1(c2ccc(-c3nc4ccn5c(=O)[nH]nc5c4cc3-c3ccccc3)cc2)CCC1 reported_endpoint=Potency value_measured="26.8 µM (active)"
compound=CC(C)(C)C1=CC(=O)C=C(C(C)(C)C)C1=O reported_endpoint=Potency value_measured=inactive
compound="COc1ccccc1OCCNCC(O)COc1cccc2[nH]c3ccccc3c12 (stereo unspecified)" reported_endpoint=Potency value_measured="23.9 µM (active)"
compound=CC(C)N=C(N)/N=C(\N)Nc1ccc(Cl)cc1 reported_endpoint=Potency value_measured="26.8 µM (active)"
compound=O=C(c1ccccc1)c1cc(Cl)ccc1O reported_endpoint=Potency value_measured=inactive
compound=COC(=O)[C@]1(C)CCC[C@@]2(C)[C@H]1CC=C1C=C(C(C)C)CC[C@@H]12 reported_endpoint=Potency value_measured="24.5 µM (active)"
compound=NC(=O)c1ccccc1N reported_endpoint=Potency value_measured=inactive
compound=CCO[Si](CCCSSSSCCC[Si](OCC)(OCC)OCC)(OCC)OCC reported_endpoint=Potency value_measured=inactive
compound=CO[C@H]1C=CO[C@@]2(C)Oc3c(C)c(O)c4c(O)c(cc(O)c4c3C2=O)NC(=O)/C(C)=C\C=C/[C@H](C)[C@H](O)[C@@H](C)[C@@H](O)[C@@H](C)[C@H](OC(C)=O)[C@@H]1C reported_endpoint=Potency value_measured=inactive
compound=O=C(Nc1ccc(Cl)cc1)Nc1ccc(Cl)c(C(F)(F)F)c1 reported_endpoint=Potency value_measured="19 µM (active)"
compound=Oc1cc2ccccc2cc1O reported_endpoint=Potency value_measured=inactive
compound=CCN=C1C=CC(=C(c2ccc(N(CC)CC)cc2)c2ccc(N(CC)CC)cc2)c2ccccc21 reported_endpoint=Potency value_measured="19.4 µM (active)"
compound=CCCCCCCC(C)=O reported_endpoint=Potency value_measured=inactive
compound=CCCCN(C)C reported_endpoint=Potency value_measured=inactive
compound="CCNc1nc(NC(C)CC)nc(OC)n1 (stereo unspecified)" reported_endpoint=Potency value_measured=inactive
compound=O=CC1CC1 reported_endpoint=Potency value_measured=inactive
compound=CC1(C)C(=O)N(Br)C(=O)N1Br reported_endpoint=Potency value_measured=inactive
compound=CC1CCCCC1 reported_endpoint=Potency value_measured=inactive
compound="CCOC(=O)CC(C)O (stereo unspecified)" reported_endpoint=Potency value_measured=inactive
compound=CO[Si](CCCNCCNCCN)(OC)OC reported_endpoint=Potency value_measured=inactive
compound=C=CC(=O)OCCOCC(CC)(COCCOC(=O)C=C)COCCOC(=O)C=C reported_endpoint=Potency value_measured="25.6 µM (active)"
compound=[O]=[Zr] reported_endpoint=Potency value_measured=inactive
compound=NCCCCCCNCCCCCCN reported_endpoint=Potency value_measured=inactive
compound="C=C1C(C)(C)[C@@]2(Cl)C(Cl)[C@]1(Cl)C(Cl)(Cl)C2(Cl)Cl (stereo partly specified)" reported_endpoint=Potency value_measured="53.9 µM (active)"
compound=CCO[Si](C)(C)OCC reported_endpoint=Potency value_measured=inactive
compound=Cc1nc(Nc2ncc(C(=O)Nc3c(C)cccc3Cl)s2)cc(N2CCN(CCO)CC2)n1 reported_endpoint=Potency value_measured="26.8 µM (active)"
compound=CCCCCCCC/C=C/CCCOC(C)=O reported_endpoint=Potency value_measured=inactive
compound=C(=C/c1ccccc1)/c1ccccc1 reported_endpoint=Potency value_measured=inactive
compound=C[C@@H]1CC[C@H]2C(C)(C)[C@H]3C[C@@]12CC[C@@]3(C)O reported_endpoint=Potency value_measured="54.9 µM (active)"
compound=O=C(O)Cc1ccc(OCCNC[C@H](O)c2ccccc2)cc1 reported_endpoint=Potency value_measured=inactive
compound=Cn1cnc2ncnc(N)c21 reported_endpoint=Potency value_measured=inactive
compound=CCCC(=O)OCC(COC(=O)CCC)OC(=O)CCC reported_endpoint=Potency value_measured=inactive
compound=Cc1cccc(Br)c1 reported_endpoint=Potency value_measured=inactive
compound=CN(Cc1cc(Br)cc(Br)c1N)C1CCCCC1 reported_endpoint=Potency value_measured="12 µM (active)"
compound="CCCCOC(=O)C(C)CC (stereo unspecified)" reported_endpoint=Potency value_measured=inactive
compound="O=C1OC(OC(=O)c2cccnc2Nc2cccc(C(F)(F)F)c2)c2ccccc21 (stereo unspecified)" reported_endpoint=Potency value_measured=inactive
compound=S=P(N1CC1)(N1CC1)N1CC1 reported_endpoint=Potency value_measured=inactive

Origin of measurements: PubChem BioAssay (Tox21)
